// provenance: the supplement of paper PMC10567573

B1: INTS3 (parent)
chain: FSDDEEDLNSKGKKREFRFHPIKE

variants of: B1; assay: protein stability index of a GFP-peptide fusion (GPS, HEK-293T) (PSI 1-6); higher = more stable; conditions: c terminus: a fixed tail appended;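 note: lentivirally expressed fusions sorted by FACS into six bins by GFP to DsRed ratio, PSI derived from sequencing read proportions per bin multiplied by bin number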
I would appreciate it if you labelled entries t when protein stability index is 3 or higher, otherwise f.

VARIANT_LABEL	GROUP_LABEL
K14T	t
E24F	f
K11L	f
K14I	f
D7A	f
F17T	t
R15M	f
R15Y	f
N9M	f
S2A	t
F1A	f
E5R	f
F17Y	t
H20K	t
D3E	f
D3G	f
I22Y	f
D3V	f
F17Q	t
E5Q	f
R18M	t
S2F	f
K14P	t
K14V	f
K23H	t
P21Y	t
I22T	t
R18W	t
D3W	f
F19G	t
E6S	f
F19D	t
E6I	f
F1M	f
E5G	f
F17V	t
S2Q	f
S2M	f
F17D	t
F1S	f
E6N	f
N9H	f
F19Y	t
H20A	t
E24Y	f
R18K	t
D4P	f
F17W	f
F17G	t
K13A	t
E5F	f
K23F	t
D4N	f
H20F	t
G12Y	f
E24M	f
R15D	t
K14R	f
R15V	t
E5W	f
S2E	t
D3S	f
F1K	f
G12V	f
S2D	t
K14N	t
F1C	f
G12A	f
E24T	f
S2H	f
P21A	t
K23E	t
F17I	t
D7Y	f
I22D	t
D3H	f
L8Q	t
H20T	t
S2P	f
F1W	f
